# Tested on: E18 rat cortical neuron-glia co-culture;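 note: MBP fiber length per Olig2+ nucleus over MBP area × intensity per Olig2+ nucleus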
# assay method text: fiber score / MBP score (myelination specific beyond OL differentiation) (ratio); higher = more myelination-specific MBP alignment
# measurement conditions: 5 µM; treatment time: 8 days (DIV5-DIV13)
Could you please report measured fiber score / MBP score for the items listed next?

Consider the compound Cc1ncc([N+](=O)[O-])n1CC(O)CCl (centres undefined) and give its recorded fiber score / MBP score.
0.686

Consider the compound CCC(C)n1ncn(-c2ccc(N3CCN(c4ccc(OCC5COC(Cn6cncn6)(c6ccc(Cl)cc6Cl)O5)cc4)CC3)cc2)c1=O (centres undefined) and give its recorded fiber score / MBP score.
0.918

Consider the compound Nc1nc2c(ncn2COCCO)c(=O)[nH]1 and give its recorded fiber score / MBP score.
1.1

Consider the compound Cc1cn([C@H]2C[C@H](N=[N+]=[N-])[C@@H](CO)O2)c(=O)[nH]c1=O and give its recorded fiber score / MBP score.
0.666

Consider the compound Cc1nc2n(c(=O)c1CCN1CCC(c3noc4cc(F)ccc34)CC1)CCCC2 and give its recorded fiber score / MBP score.
0.565

Consider the compound CCCN(CCC)S(=O)(=O)c1ccc(C(=O)O)cc1 and give its recorded fiber score / MBP score.
1.44

Consider the compound CC1=Nc2ccc(Cl)cc2S(=O)(=O)N1 [Diazoxide] and give its recorded fiber score / MBP score.
0.573

Consider the compound Cc1c(OCC(F)(F)F)ccnc1C[S+]([O-])c1nc2ccccc2[nH]1 (centres undefined) and give its recorded fiber score / MBP score.
1.37

Consider the compound O=C1c2cccc3c2[C@H](CCC3)CN1[C@@H]1CN2CCC1CC2 and give its recorded fiber score / MBP score.
0.587
